- measurement.target: mouse α2B receptor (Mus musculus, UniProt P30545)
- Sequence (P30545 whole entry): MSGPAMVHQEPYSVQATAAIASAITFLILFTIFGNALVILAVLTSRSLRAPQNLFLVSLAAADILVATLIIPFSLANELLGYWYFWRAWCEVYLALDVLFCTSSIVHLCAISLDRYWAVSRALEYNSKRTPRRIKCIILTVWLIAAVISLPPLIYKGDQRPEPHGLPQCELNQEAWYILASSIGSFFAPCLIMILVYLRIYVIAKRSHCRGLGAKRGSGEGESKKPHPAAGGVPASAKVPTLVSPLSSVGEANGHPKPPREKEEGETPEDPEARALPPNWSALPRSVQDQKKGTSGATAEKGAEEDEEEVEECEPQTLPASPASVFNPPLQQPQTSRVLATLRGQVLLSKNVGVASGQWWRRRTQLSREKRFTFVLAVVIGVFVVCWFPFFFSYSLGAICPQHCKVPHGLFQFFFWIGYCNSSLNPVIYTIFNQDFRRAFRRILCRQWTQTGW
- procedure.details: FLIPR Ca+2 influx assay, α2B
- test.conditions: HEK 293 cells stably expressing mouse α2B receptor and Gα16 protein
pEC50: −log10 of the molar value.
assay.readout: pEC50

molecule	pEC50
CCCN(Cc1cccnc1)C1CCc2cccc(OC)c2C1 (stereo not shown)	6.09
CCN(Cc1ccccn1)C1CCc2cccc(O)c2C1 (stereo not shown)	6.13
CCN(Cc1ccccn1)C1CCc2cccc(OC)c2C1 (stereo not shown)	6.19
CCN(Cc1cccnc1)C1CCc2cccc(OC)c2C1 (stereo not shown)	6.21

---

pEC50 reference
- measurement.target: human α2A receptor (Homo sapiens)
- Sequence (P08913 whole entry): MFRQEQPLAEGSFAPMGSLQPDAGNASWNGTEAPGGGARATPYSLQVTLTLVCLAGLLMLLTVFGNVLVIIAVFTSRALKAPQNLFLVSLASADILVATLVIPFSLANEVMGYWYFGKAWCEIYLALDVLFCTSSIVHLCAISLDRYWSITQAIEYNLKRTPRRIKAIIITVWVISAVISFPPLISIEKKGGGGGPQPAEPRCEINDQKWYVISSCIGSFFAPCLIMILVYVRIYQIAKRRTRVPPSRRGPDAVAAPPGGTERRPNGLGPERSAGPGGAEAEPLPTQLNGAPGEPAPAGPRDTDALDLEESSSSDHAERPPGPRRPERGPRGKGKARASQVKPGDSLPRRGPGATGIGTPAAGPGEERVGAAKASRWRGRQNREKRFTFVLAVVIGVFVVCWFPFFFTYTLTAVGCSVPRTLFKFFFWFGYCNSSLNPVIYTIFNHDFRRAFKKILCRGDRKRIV
- procedure.details: FLIPR Ca+2 influx assay, α2A
- test.conditions: HEK 293 cells stably expressing human α2A receptor and chimeric G protein Gqi5
pEC50: −log10 of the molar value.

Take a look at these entries with their results.
compound	assay.readout	reported.result
CCCN(Cc1ccccn1)C1CCc2cccc(OC)c2C1 (stereo not drawn)	pEC50	< 5.00
CCN(Cc1ccccn1)C1CCc2cccc(OC)c2C1 (stereo not drawn)	pEC50	< 5.00
CCCN(Cc1ccccn1)C1CCc2cccc(O)c2C1 (stereo not drawn) [drawing 21]	pEC50	< 5.00
CCCN(Cc1ccncc1)[C@@H]1CCc2cccc(O)c2C1	pEC50	< 5.00
CCCN(Cc1ccccn1)C1CCc2cccc(O)c2C1 (stereo not drawn) [drawing 20]	pEC50	< 5.00

Read the entry `CCCN(Cc1ccncc1)[C@@H]1CCc2cccc(OC)c2C1` and write its reported pEC50.
6.37

Read the entry CCCN(Cc1ccncc1)C1CCc2cccc(O)c2C1 (stereo not drawn) and write its reported pEC50.
< 5.00

Read the entry CCN(Cc1cccnc1)C1CCc2cccc(O)c2C1 (stereo not drawn) and write its reported pEC50.
5.35

Read the entry CCCN(Cc1cccnc1)C1CCc2cccc(OC)c2C1 (stereo not drawn) and write its reported pEC50.
< 6.00
